target: Nitric oxide synthase 1 (Homo sapiens, UniProt P29475)
Sequence (P29475 whole entry): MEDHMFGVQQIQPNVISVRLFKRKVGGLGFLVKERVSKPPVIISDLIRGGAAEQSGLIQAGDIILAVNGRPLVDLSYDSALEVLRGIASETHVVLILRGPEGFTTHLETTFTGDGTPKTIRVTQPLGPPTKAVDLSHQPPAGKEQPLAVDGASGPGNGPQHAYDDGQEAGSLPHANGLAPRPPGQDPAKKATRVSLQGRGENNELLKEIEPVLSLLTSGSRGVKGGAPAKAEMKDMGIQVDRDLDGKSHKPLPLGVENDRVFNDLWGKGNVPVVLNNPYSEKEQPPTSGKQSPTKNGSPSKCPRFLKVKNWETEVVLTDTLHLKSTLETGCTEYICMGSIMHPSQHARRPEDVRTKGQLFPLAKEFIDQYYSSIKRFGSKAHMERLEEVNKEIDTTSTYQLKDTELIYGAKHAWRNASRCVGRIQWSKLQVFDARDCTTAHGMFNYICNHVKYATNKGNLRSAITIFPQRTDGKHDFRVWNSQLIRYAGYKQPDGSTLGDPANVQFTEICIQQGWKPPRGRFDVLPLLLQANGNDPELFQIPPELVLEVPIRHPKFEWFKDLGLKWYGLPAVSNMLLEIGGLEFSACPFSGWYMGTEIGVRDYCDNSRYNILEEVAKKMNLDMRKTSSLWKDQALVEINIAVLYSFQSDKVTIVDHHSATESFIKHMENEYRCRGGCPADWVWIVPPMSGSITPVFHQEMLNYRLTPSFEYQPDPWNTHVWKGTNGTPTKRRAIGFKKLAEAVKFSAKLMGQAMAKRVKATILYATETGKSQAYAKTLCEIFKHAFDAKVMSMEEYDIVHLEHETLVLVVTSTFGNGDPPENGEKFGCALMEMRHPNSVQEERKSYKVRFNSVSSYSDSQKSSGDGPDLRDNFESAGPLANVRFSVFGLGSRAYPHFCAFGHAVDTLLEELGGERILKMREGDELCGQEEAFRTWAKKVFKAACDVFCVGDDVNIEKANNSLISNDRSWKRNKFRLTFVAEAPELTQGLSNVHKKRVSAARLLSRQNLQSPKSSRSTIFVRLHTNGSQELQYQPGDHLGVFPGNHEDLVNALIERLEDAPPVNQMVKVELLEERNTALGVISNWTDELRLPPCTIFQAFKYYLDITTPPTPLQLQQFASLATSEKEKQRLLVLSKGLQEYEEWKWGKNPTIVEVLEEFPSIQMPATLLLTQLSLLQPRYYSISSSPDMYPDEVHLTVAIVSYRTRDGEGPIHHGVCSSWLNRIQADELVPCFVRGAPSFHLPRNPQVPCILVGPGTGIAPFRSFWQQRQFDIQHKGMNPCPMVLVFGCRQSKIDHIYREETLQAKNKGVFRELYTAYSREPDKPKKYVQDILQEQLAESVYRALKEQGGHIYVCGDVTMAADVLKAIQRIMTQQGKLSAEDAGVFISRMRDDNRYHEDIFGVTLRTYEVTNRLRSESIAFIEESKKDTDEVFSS
Ki less than 80 µM is T; Ki greater than or equal to 80 µM is F.

Input: # strict comparison: is reported Ki < 80 µM? input = CC(=N)Nc1cccc(CCN)c1
Output: T

Input: # strict comparison: is reported Ki < 80 µM? input = CCCC/N=C(\N)n1cccn1
Output: T

Input: # strict comparison: is reported Ki < 80 µM? input = N[C@@H](CCc1cnc[nH]1)C(=O)O
Output: F

Input: # strict comparison: is reported Ki < 80 µM? input = N=C(N)n1cccn1
Output: T

Input: # strict comparison: is reported Ki < 80 µM? input = N=C(NN)NO
Output: T

Input: # strict comparison: is reported Ki < 80 µM? input = Brc1ccc(OCCCn2ccnc2)cc1
Output: F

Input: # strict comparison: is reported Ki < 80 µM? input = CC(=N)Nc1cccc(CN2CCOCC2)c1
Output: T

Input: # strict comparison: is reported Ki < 80 µM? input = Nc1nccs1
Output: T

Input: # strict comparison: is reported Ki < 80 µM? input = N=C(NN)Nc1ccccc1
Output: T

Input: # strict comparison: is reported Ki < 80 µM? input = Nc1nc(CCc2ccccc2)cs1
Output: T

Input: # strict comparison: is reported Ki < 80 µM? input = c1ccc(-n2ccnc2)cc1
Output: F

Input: # strict comparison: is reported Ki < 80 µM? input = Cc1cc(C)n(C(=N)N)n1
Output: F

Input: # strict comparison: is reported Ki < 80 µM? input = N=C(N)SCCN
Output: T

Input: # strict comparison: is reported Ki < 80 µM? input = c1c[nH]cn1
Output: F

Input: # strict comparison: is reported Ki < 80 µM? input = CCNC(=N)NN
Output: T

Input: # strict comparison: is reported Ki < 80 µM? input = N=C(N)SCCCc1cccc(CCCSC(=N)N)c1
Output: T

Input: # strict comparison: is reported Ki < 80 µM? input = FC(F)(F)c1ccc(OCCCn2ccnc2)cc1
Output: T

Input: # strict comparison: is reported Ki < 80 µM? input = Cc1cnn(C(=N)N)c1
Output: T

Input: # strict comparison: is reported Ki < 80 µM? input = NC(=O)[C@@H]1C[C@@H](NC(=O)[C@@H](N)CCC/N=C(\N)N[N+](=O)[O-])CN1
Output: T

Input: # strict comparison: is reported Ki < 80 µM? input = N=C(N)SCc1ccccc1 [BENZYL CARBAMIMIDOTHIOATE]
Output: T

Input: # strict comparison: is reported Ki < 80 µM? input = N=C(NCCC[C@H](N)C(=O)N[C@@H]1CN[C@@H](C(N)=O)C1)N[N+](=O)[O-]
Output: T

Input: # strict comparison: is reported Ki < 80 µM? input = N[C@@H](CCCCCc1cncn1-c1ccccc1)C(=O)O
Output: T

Input: # strict comparison: is reported Ki < 80 µM? input = CCCSC(=N)N
Output: T

Input: # strict comparison: is reported Ki < 80 µM? input = OC(Cn1ccnc1)c1ccc(-c2ccccc2)cc1 (stereo not given)
Output: F

Input: # strict comparison: is reported Ki < 80 µM? input = O=C(Cn1ccnc1)c1ccc([N+](=O)[O-])cc1
Output: F

Input: # strict comparison: is reported Ki < 80 µM? input = FC(F)(F)c1ccc(OCCCCn2ccnc2)cc1
Output: F

Input: # strict comparison: is reported Ki < 80 µM? input = O=C(Cn1ccnc1)c1ccccc1[N+](=O)[O-]
Output: F

Input: # strict comparison: is reported Ki < 80 µM? input = Cc1nc(N)sc1C
Output: T

Input: # strict comparison: is reported Ki < 80 µM? input = N=C(N)NN
Output: T
